System: CAKI-1
Method Notes: NCI tumour cell line growth inhibition, 48 h
The source made the active and inactive calls. Cut-off read from the data, not from the text of the source: active = GI50 up to about 1.1 µM and inactive = higher.
Value Type: GI50

Worked examples follow.
Need GI50, item O=C1C=C(NCCc2cc(Br)c(O)c(Br)c2)C(=O)c2[nH]cnc21
39.9 µM (inactive)

Need GI50, item Cc1c(O)oc2ccccc2c1=O
> 100 µM (inactive)

Need GI50, item C1CCNCC1.CN(C)c1ccc(/C=C2/NC(=S)NC2=O)cc1
62.5 µM (inactive)

Go through the items and report each one's GI50.
1. CN1C(=O)CC(CC(=O)C2CCCCC2=O)CC1=O (stereo unspecified)
2. NC(CCC(=O)NC(CSSCCCCS(=O)O)C(=O)NCC(=O)O)C(=O)O (stereo unspecified)
3. CN(C)/C=C1\CCc2ccc([N+](=O)[O-])cc2C1=O

1: > 100 µM (inactive); 2: > 100 µM (inactive); 3: > 100 µM (inactive)

====

System: LOX IMVI
Method Notes: NCI tumour cell line growth inhibition, 48 h
Activity calls are given as the source filed them. Cut-off read from the data, not from the text of the source: active = GI50 up to about 1.1 µM and inactive = higher. Where a SMILES comes first, the peptide text is derived from it. Non-standard residues stand in square brackets, D forms with d. Residues, ends and D or L forms follow the SMILES beside them. The star is where a group is joined. *: point of attachment. NMeF = CN[CH](Cc1ccccc1)C(=O)O; NMeV = CN[CH](C(=O)O)C(C)C; Boc = CC(C)(C)OC(=O)*
Consider the following compounds; for each one, report its GI50.

Worked examples follow.
Need GI50, item COc1ccc(/C=C2\CCS(=O)(=O)c3ccccc3C2=O)cc1
20.4 µM (inactive)

Need GI50, item CCOC(=O)Cc1ccc(Nc2nc3cc(C(F)(F)F)ccc3nc2C(=O)OCC)cc1
> 100 µM (inactive)

Need GI50, item COC(=O)C1C(=O)N(CCc2c[nH]c3ccccc23)C[C@@H]2CCC(=O)C[C@H]12 (stereo partly specified)
> 100 µM (inactive)

Need GI50, item CCCCCCCCCCCCCCCCOc1ccc(/C=C/C2=[N+](CCCl)CCO2)cc1
> 100 µM (inactive)

Need GI50, item CCOC(=O)C(CC(C)C)NC(=O)C(Cc1ccccc1)NC(=O)CNC(=O)OC(C)(C)C (stereo not drawn) (Boc-Gly-Phe-Leu-OEt; configuration not given here)
18.2 µM (inactive)

Go through the items and report each one's GI50.
1. COc1ccc(-c2nc3ccc(C)cc3o2)c(OC)c1
2. CCCCOCCOCCOC1=CC(=O)c2c(O)ccc(O)c2C1=O
3. COc1ccccc1NC(=O)C1=C(C)NC(C)=C(C(=O)Nc2ccccc2OC)C1c1ccccc1OC
4. O=C(O)Cc1ccc(Oc2nc3ccccc3nc2-c2cccs2)cc1
5. Nc1ccc(-c2nc3cc(F)ccc3s2)cc1Br

16.6 µM (inactive)
1.86 µM (inactive)
> 100 µM (inactive)
40.6 µM (inactive)
> 51.2 µM (inactive)

Go through the items and report each one's GI50.
1. COc1cc(C2SCC(=O)N2c2ccc(Cl)c(Cl)c2)cc(OC)c1OC (stereo unspecified)
2. O=C1SC(SCc2ccccc2)=NC12CC2c1ccccc1 (stereo unspecified)
3. O=C(Nc1ccccc1)c1cc(S(=O)(=O)n2ccnc2O)c(S)cc1Cl

1: 17.7 µM (inactive); 2: 18.8 µM (inactive); 3: > 100 µM (inactive)

Go through the items and report each one's GI50.
1. CC(C)C(NC(=O)OC(C)(C)C)C(=O)N(C)C(Cc1ccccc1)C(=O)N(C)C(C(=O)N(C)C(C(=O)O)C(C)C)C(C)C (stereo unspecified) (Boc-V[NMeF][NMeV][NMeV]-OH; configuration not given here)
2. COc1cccc(/C=C\c2ccnc3ccccc23)c1
3. O=C(c1ccco1)N(C(=O)N1CCC(c2ccccc2)CC1)c1ccccc1
4. O=C1/C(=C\c2cccc(Oc3ccccc3)c2)SC(c2ccccc2)N1c1ccc(Cl)cc1 (stereo unspecified)
5. O=C(O)C(CS)NCc1c2ccccc2nc2ccccc12 (stereo unspecified)
6. Cc1ncn(-c2ccccc2O)c1C
7. Nc1ncnc2c1ncn2CCCNO

1. > 100 µM (inactive)
2. 9.51 µM (inactive)
3. 59.7 µM (inactive)
4. 15.8 µM (inactive)
5. 30.5 µM (inactive)
6. > 100 µM (inactive)
7. > 100 µM (inactive)

Need GI50, item CN(C)C[C@H]1CC[C@@H](CN(C)C)C1=O
7.14 µM (inactive)
